Here the recorded pEC50 is given for each entry.
# System: Human alphaherpesvirus 1
# Assay Explanation: Effective concentration against thymidine kinase deficient herpes simplex virus (HSV-1) in B2006 strain
# Condition Summary: Human alphaherpesvirus 1, B2006
Expect pEC50 as a plain number equal to -log10 of the molar concentration.

Observe how each entry below is paired with its result.
Nc1nc(NC2CC2)c2ncn([C@H]3C=C[C@@H](CO)C3)c2n1 [ABACAVIR] : 3.05
Nc1nc(NC2CC2)c2ncn([C@H]3C=C[C@@H](COP(=O)(O)O)C3)c2n1 : 4.70

Below: the item to evaluate.
Q. Report pEC50 for Nc1nc2c(ncn2[C@H]2C=C[C@@H](CO)C2)c(=O)[nH]1 [CARBOVIR] please.
A. 4.30

* * *

Here the recorded Tmax is given for each entry.
# Assay Explanation: Time of maximum concentration was observed in monkey after oral dosage
# Assay type: ADME, organism-based
# Condition Summary: cercopithecidae, in vivo

Observe how each entry below is paired with its result.
Nc1nc2c(ncn2[C@H]2C=C[C@@H](CO)C2)c(=O)[nH]1 : 4.7 h
Nc1nc(NC2CC2)c2ncn([C@H]3C=C[C@@H](COP(=O)(O)O)C3)c2n1 : 1.3 h
Nc1nc(NC2CC2)c2ncn([C@H]3C=C[C@@H](CO)C3)c2n1 : 3 h
CCOC(=O)[C@H](C)NP(=O)(OC[C@@H]1C=C[C@H](n2cnc3c(NC4CC4)nc(N)nc32)C1)Oc1ccccc1 (stereo not given in full) : 0.8 h

Q. Report Tmax for `C[C@@H](NP(=O)(O)OC[C@@H]1C=C[C@H](n2cnc3c(NC4CC4)nc(N)nc32)C1)C(=O)O` please.
A. 1.3 h

* * *

# Assay Explanation: Oral bioavailability in monkey after oral dosage
# Assay type: ADME, organism-based
# Condition Summary: cercopithecidae, in vivo
Endpoint: bioavailability
Dear colleague, please send the value followed by its unit.

Q. Report bioavailability for CCOC(=O)[C@H](C)NP(=O)(OC[C@@H]1C=C[C@H](n2cnc3c(NC4CC4)nc(N)nc32)C1)Oc1ccccc1 (stereo partly specified) please.
A. 22%

* * *

# Assay Explanation: Apparent half life value in monkey after oral dosage
# Assay type: ADME, organism-based
# Condition Summary: cercopithecidae, in vivo, read-out: T1/2 app (converted)
Here the recorded half-life is given for each entry.
Response body: numeric value in h, unit text excluded.

Observe how each entry below is paired with its result.
CCOC(=O)[C@H](C)NP(=O)(OC[C@@H]1C=C[C@H](n2cnc3c(NC4CC4)nc(N)nc32)C1)Oc1ccccc1 (some centres undefined) : 0.4
C[C@@H](NP(=O)(O)OC[C@@H]1C=C[C@H](n2cnc3c(NC4CC4)nc(N)nc32)C1)C(=O)O : 0.8
Nc1nc2c(ncn2[C@H]2C=C[C@@H](CO)C2)c(=O)[nH]1 : 6

Below: the item to evaluate.
Q. Report half-life for `Nc1nc(NC2CC2)c2ncn([C@H]3C=C[C@@H](CO)C3)c2n1` please.
A. 2.6

* * *

# Tested on: Moloney murine sarcoma virus
# Assay Explanation: Effective concentration against murine moloney sarcoma virus in C3H/3T3 cells
# Format: functional, organism-based
Endpoint: EC50 (µM)
Response body: numeric value in µM, unit text excluded.

Observe how each entry below is paired with its result.
COC(=O)[C@@H](C)NP(=O)(OC[C@@H]1C=C[C@H](n2cnc3c(O)nc(N)nc32)C1)Oc1ccccc1 (some centres undefined) : 8.8
Nc1nc(NC2CC2)c2ncn([C@H]3C=C[C@@H](CO)C3)c2n1 : 8.8
Nc1nc2c(ncn2[C@H]2C=C[C@@H](CO)C2)c(=O)[nH]1 : 6

Below: the item to evaluate.
Q. Report EC50 for `Nc1nc(NC2CC2)c2ncn([C@H]3C=C[C@@H](COP(=O)(O)O)C3)c2n1` please.
A. 1.6

* * *

# Test system: Human alphaherpesvirus 1
# Assay Explanation: Effective concentration against thymidine kinase competent herpes simplex virus (HSV-1) in […]
# Assay type: functional, organism-based
Here the recorded EC50 is given for each entry.

COC(=O)[C@@H](C)NP(=O)(OC[C@@H]1C=C[C@H](n2cnc3c(O)nc(N)nc32)C1)Oc1ccccc1 (some centres undefined) : 480 µM
Nc1nc2c(ncn2[C@H]2C=C[C@@H](CO)C2)c(=O)[nH]1 : 5 µM
Nc1nc(NC2CC2)c2ncn([C@H]3C=C[C@@H](CO)C3)c2n1 : 900 µM

Below: the item to evaluate.
Q. Report EC50 for `Nc1nc(NC2CC2)c2ncn([C@H]3C=C[C@@H](COP(=O)(O)O)C3)c2n1` please.
A. 20 µM

* * *

# Test system: Hepatitis B virus
# Assay Explanation: Effective concentration against hepatitis B virus in Hep G2.2.15 cells
# Type: functional, organism-based
# Condition Summary: HepG2 2.2.15
Endpoint: pEC50
Expect pEC50 as a plain number equal to -log10 of the molar concentration.

Q. Report pEC50 for `Nc1nc(NC2CC2)c2ncn([C@H]3C=C[C@@H](COP(=O)(O)O)C3)c2n1` please.
A. 6.26

* * *

# Tested on: MT4
# Assay Explanation: Cytostatic concentration required to inhibit MT-4 cell proliferation
# Format: functional, Homo sapiens
Endpoint: CC50 (µM)
Response body: numeric value in µM, unit text excluded.

Observe how each entry below is paired with its result.
CCOC(=O)[C@@H](C)NP(=O)(OC[C@@H]1C=C[C@H](n2cnc3c(NC4CC4)nc(N)nc32)C1)Oc1ccccc1 (stereo in doubt; 6a) : 0.95
CCOC(=O)[C@@H](C)NP(=O)(OC[C@@H]1C=C[C@H](n2cnc3c(NC4CC4)nc(N)nc32)C1)Oc1ccccc1 (stereo in doubt; 6a,b) : 4.6
CCOC(=O)[C@@H](C)NP(=O)(OC[C@@H]1C=C[C@H](n2cnc3c(NC4CC4)nc(N)nc32)C1)Oc1ccccc1 (stereo in doubt; 6) : 8.6
COC(=O)[C@@H](C)NP(=O)(OC[C@@H]1C=C[C@H](n2cnc3c(NC4CC4)nc(N)nc32)C1)Oc1ccccc1 (stereo in doubt; 3a) : 1
CCOC(=O)[C@@H](C)NP(=O)(OC[C@@H]1C=C[C@H](n2cnc3c(NC4CC4)nc(N)nc32)C1)Oc1ccccc1 (stereo in doubt; 6b) : 5

Below: the item to evaluate.
Q. Give CC50 (MT4) of the following molecule: COC(=O)[C@@H](C)NP(=O)(OC[C@@H]1C=C[C@H](n2cnc3c(NC4CC4)nc(N)nc32)C1)Oc1ccccc1 (stereo in doubt; 3b)
A. 4

* * *

# Assay Explanation: Area under the plasma concentration-time curve in monkey after peroral dosage
# Type: ADME
# Condition Summary: cercopithecidae, po
Endpoint: AUC (µM·h)
Response body: numeric value in µM·h, unit text excluded.

C[C@@H](NP(=O)(O)OC[C@@H]1C=C[C@H](n2cnc3c(NC4CC4)nc(N)nc32)C1)C(=O)O : 2.6
CCOC(=O)[C@H](C)NP(=O)(OC[C@@H]1C=C[C@H](n2cnc3c(NC4CC4)nc(N)nc32)C1)Oc1ccccc1 (some centres undefined) : 0.7
Nc1nc2c(ncn2[C@H]2C=C[C@@H](CO)C2)c(=O)[nH]1 : 0.4

Below: the item to evaluate.
Q. Report AUC for `Nc1nc(NC2CC2)c2ncn([C@H]3C=C[C@@H](CO)C3)c2n1` please.
A. 6

* * *

# Assay Explanation: Area under the plasma concentration-time curve in monkey after intravenous dosage
# Assay type: ADME
# Condition Summary: cercopithecidae
Endpoint: AUC
Dear colleague, please send the value followed by its unit.

Observe how each entry below is paired with its result.
Nc1nc(NC2CC2)c2ncn([C@H]3C=C[C@@H](COP(=O)(O)O)C3)c2n1 : 0.4 µM·h
Nc1nc(NC2CC2)c2ncn([C@H]3C=C[C@@H](CO)C3)c2n1 [ABACAVIR] : 6 µM·h
Nc1nc2c(ncn2[C@H]2C=C[C@@H](CO)C2)c(=O)[nH]1 [CARBOVIR] : 0.7 µM·h

Q. Report AUC for `C[C@@H](NP(=O)(O)OC[C@@H]1C=C[C@H](n2cnc3c(NC4CC4)nc(N)nc32)C1)C(=O)O` please.
A. 9.2 µM·h

* * *

# Test system: CCRF-CEM
# Assay Explanation: Cytostatic concentration required to inhibit CEM cell proliferation
# Format: functional
# Condition Summary: Homo sapiens
Endpoint: CC50 (µM)
Response body: numeric value in µM, unit text excluded.

Observe how each entry below is paired with its result.
Nc1nc(NC2CC2)c2ncn([C@H]3C=C[C@@H](CO)C3)c2n1 : 78
COC(=O)[C@@H](C)NP(=O)(OC[C@@H]1C=C[C@H](n2cnc3c(NC4CC4)nc(N)nc32)C1)Oc1ccccc1 (stereo in doubt; 3a,b) : 13

Q. Report CC50 for CC(C)OC(=O)[C@@H](C)NP(=O)(OC[C@@H]1C=C[C@H](n2cnc3c(NC4CC4)nc(N)nc32)C1)Oc1ccccc1 (some centres undefined) please.
A. 13
